# SYSTEM_TESTED: T1, recombinant human IL-6 (human, UniProt P05231 30-212)
# T1 construct: Flowed in solution over the captured antibodies
# ASSAY_DETAILS: SPR (Biacore), supernatant IgG on Protein A, 25 C
MEASUREMENT_NAME: kon
Kindly report the value followed by its unit.

Exercise: Consider the binder shown here: anti-IL-6 antibody, heavy chain F27P, light chain WT (antibody, IgG1, V domains shown, Full IgG1 tested; V domains derived as in m2) VH: EVQLVESGGGLVQPGGSLRLSCAASGPTFSPFAMSWVRQAPGKGLEWVAKISPGGSWTYYSDTVTGRFTFSLDTSKSTAYLQMNSLRAEDTAVYYCARQLWGYYALDIWGQGTLVTVSS VL: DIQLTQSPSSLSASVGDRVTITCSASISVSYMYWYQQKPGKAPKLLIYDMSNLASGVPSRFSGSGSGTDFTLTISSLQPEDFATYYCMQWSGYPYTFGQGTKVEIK What is its recorded kon?
Solution: 570000 M⁻¹ s⁻¹

Exercise: So what's the measured kon for this one? anti-IL-6 antibody, heavy chain WT, light chain S24I (antibody, IgG1, V domains shown, Full IgG1 tested; V domains derived as in m2) VH: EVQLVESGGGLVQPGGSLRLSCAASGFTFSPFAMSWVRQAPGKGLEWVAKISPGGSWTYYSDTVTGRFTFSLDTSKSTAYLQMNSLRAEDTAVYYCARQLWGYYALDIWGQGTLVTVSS VL: DIQLTQSPSSLSASVGDRVTITCIASISVSYMYWYQQKPGKAPKLLIYDMSNLASGVPSRFSGSGSGTDFTLTISSLQPEDFATYYCMQWSGYPYTFGQGTKVEIK
Solution: 476000 M⁻¹ s⁻¹

Exercise: Can you look up the measured kon of anti-IL-6 antibody, heavy chain Q99A, light chain WT (antibody, IgG1, V domains shown, Full IgG1 tested; V domains derived as in m2) VH: EVQLVESGGGLVQPGGSLRLSCAASGFTFSPFAMSWVRQAPGKGLEWVAKISPGGSWTYYSDTVTGRFTFSLDTSKSTAYLQMNSLRAEDTAVYYCARALWGYYALDIWGQGTLVTVSS VL: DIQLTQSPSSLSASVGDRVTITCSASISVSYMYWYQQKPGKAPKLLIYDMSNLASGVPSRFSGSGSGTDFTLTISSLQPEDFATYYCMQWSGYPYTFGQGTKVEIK for me?
Solution: 368000 M⁻¹ s⁻¹

Exercise: Value lookup for kon; key = anti-IL-6 antibody, heavy chain A105Q, light chain WT (antibody, IgG1, V domains shown, Full IgG1 tested; V domains derived as in m2) VH: EVQLVESGGGLVQPGGSLRLSCAASGFTFSPFAMSWVRQAPGKGLEWVAKISPGGSWTYYSDTVTGRFTFSLDTSKSTAYLQMNSLRAEDTAVYYCARQLWGYYQLDIWGQGTLVTVSS VL: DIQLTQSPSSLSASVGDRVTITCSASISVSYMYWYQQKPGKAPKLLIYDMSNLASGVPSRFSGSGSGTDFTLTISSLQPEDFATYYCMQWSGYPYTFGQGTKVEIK
Solution: 474000 M⁻¹ s⁻¹

Exercise: Can you share its kon? I mean this binder: anti-IL-6 antibody, heavy chain T63E, light chain WT (antibody, IgG1, V domains shown, Full IgG1 tested; V domains derived as in m2) VH: EVQLVESGGGLVQPGGSLRLSCAASGFTFSPFAMSWVRQAPGKGLEWVAKISPGGSWTYYSDEVTGRFTFSLDTSKSTAYLQMNSLRAEDTAVYYCARQLWGYYALDIWGQGTLVTVSS VL: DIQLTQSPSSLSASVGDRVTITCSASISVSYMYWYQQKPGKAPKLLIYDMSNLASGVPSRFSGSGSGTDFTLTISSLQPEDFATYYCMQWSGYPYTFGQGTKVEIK
Solution: 380000 M⁻¹ s⁻¹

Exercise: What kon value was documented for this binder, anti-IL-6 antibody, heavy chain Y103S, light chain WT (antibody, IgG1, V domains shown, Full IgG1 tested; V domains derived as in m2) VH: EVQLVESGGGLVQPGGSLRLSCAASGFTFSPFAMSWVRQAPGKGLEWVAKISPGGSWTYYSDTVTGRFTFSLDTSKSTAYLQMNSLRAEDTAVYYCARQLWGSYALDIWGQGTLVTVSS VL: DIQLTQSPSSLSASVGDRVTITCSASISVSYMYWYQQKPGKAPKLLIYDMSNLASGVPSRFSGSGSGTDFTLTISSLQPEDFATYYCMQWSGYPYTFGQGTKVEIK ?
Solution: 546000 M⁻¹ s⁻¹

Exercise: Field request: kon | item: anti-IL-6 antibody, heavy chain I108F, light chain WT (antibody, IgG1, V domains shown, Full IgG1 tested; V domains derived as in m2) VH: EVQLVESGGGLVQPGGSLRLSCAASGFTFSPFAMSWVRQAPGKGLEWVAKISPGGSWTYYSDTVTGRFTFSLDTSKSTAYLQMNSLRAEDTAVYYCARQLWGYYALDFWGQGTLVTVSS VL: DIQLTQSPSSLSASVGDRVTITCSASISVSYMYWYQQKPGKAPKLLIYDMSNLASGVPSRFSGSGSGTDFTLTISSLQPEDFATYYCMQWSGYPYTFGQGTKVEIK
Solution: 365000 M⁻¹ s⁻¹

Exercise: Which value of kon has been reported for anti-IL-6 antibody, heavy chain M34W, light chain WT (antibody, IgG1, V domains shown, Full IgG1 tested; VL as in m2) VH: EVQLVESGGGLVQPGGSLRLSCAASGFTFSPFAWSWVRQAPGKGLEWVAKISPGGSWTYYSDTVTGRFTFSLDTSKSTAYLQMNSLRAEDTAVYYCARQLWGYYALDIWGQGTLVTVSS VL: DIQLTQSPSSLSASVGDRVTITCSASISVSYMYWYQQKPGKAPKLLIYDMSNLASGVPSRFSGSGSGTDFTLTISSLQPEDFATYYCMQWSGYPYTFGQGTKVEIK in the records?
Solution: 296000 M⁻¹ s⁻¹

Exercise: Give its kon value. Item: anti-IL-6 antibody, heavy chain Q99H, light chain WT (antibody, IgG1, V domains shown, Full IgG1 tested; V domains derived as in m2) VH: EVQLVESGGGLVQPGGSLRLSCAASGFTFSPFAMSWVRQAPGKGLEWVAKISPGGSWTYYSDTVTGRFTFSLDTSKSTAYLQMNSLRAEDTAVYYCARHLWGYYALDIWGQGTLVTVSS VL: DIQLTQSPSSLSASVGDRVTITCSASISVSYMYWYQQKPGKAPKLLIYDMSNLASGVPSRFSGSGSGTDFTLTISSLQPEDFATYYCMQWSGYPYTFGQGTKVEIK
Solution: 539000 M⁻¹ s⁻¹

Exercise: So what's the measured kon for this one? anti-IL-6 antibody, heavy chain S30Y, light chain WT (antibody, IgG1, V domains shown, Full IgG1 tested; V domains derived as in m2) VH: EVQLVESGGGLVQPGGSLRLSCAASGFTFYPFAMSWVRQAPGKGLEWVAKISPGGSWTYYSDTVTGRFTFSLDTSKSTAYLQMNSLRAEDTAVYYCARQLWGYYALDIWGQGTLVTVSS VL: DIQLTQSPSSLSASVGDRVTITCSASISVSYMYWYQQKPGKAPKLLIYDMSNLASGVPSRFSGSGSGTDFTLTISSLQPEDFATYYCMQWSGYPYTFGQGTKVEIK
Solution: 365000 M⁻¹ s⁻¹
